Just for reference, the supplement of paper PMC10307832 is where these values come from.

Tested on: NCI-H1648
Assay: relative viability (nuclei count vs DMSO), 5 days (fraction); higher = more cells survive
Conditions: first compound 1 µM
What relative viability was measured for each of the following?

## Input Data request, read-out relative viability, for O=c1cc(N2CCOCC2)oc2c(-c3cccc4c3sc3ccccc34)cccc12 + CC(=O)c1c(C)c2cnc(Nc3ccc(N4CCNCC4)cn3)nc2n(C2CCCC2)c1=O [Palbociclib] (partner 0.5 µM)
## Output 0.292

## Input Data request, read-out relative viability, for O=c1cc(N2CCOCC2)oc2c(-c3cccc4c3sc3ccccc34)cccc12 + Nc1ncn([C@H]2C[C@H](O)[C@@H](CO)O2)c(=O)n1 [Decitabine] (partner 2 µM)
## Output 0.458

## Input Data request, read-out relative viability, for O=c1cc(N2CCOCC2)oc2c(-c3cccc4c3sc3ccccc34)cccc12 + NC(=O)Nc1cc(-c2cccc(F)c2)sc1C(=O)N[C@H]1CCCNC1 [AZD7762] (partner 0.2 µM)
## Output 0.746

## Input Data request, read-out relative viability, for O=c1cc(N2CCOCC2)oc2c(-c3cccc4c3sc3ccccc34)cccc12 + COc1cccc2cc(-c3nc([C@H]4CC[C@H](C(=O)O)CC4)n4ncnc(N)c34)[nH]c12 [OSI-027] (partner 0.5 µM)
## Output 0.235
